Molecular target: cAMP and cAMP-inhibited cGMP 3',5'-cyclic phosphodiesterase 10A (Rattus norvegicus, UniProt Q9QYJ6)
Sequence (Q9QYJ6 whole entry): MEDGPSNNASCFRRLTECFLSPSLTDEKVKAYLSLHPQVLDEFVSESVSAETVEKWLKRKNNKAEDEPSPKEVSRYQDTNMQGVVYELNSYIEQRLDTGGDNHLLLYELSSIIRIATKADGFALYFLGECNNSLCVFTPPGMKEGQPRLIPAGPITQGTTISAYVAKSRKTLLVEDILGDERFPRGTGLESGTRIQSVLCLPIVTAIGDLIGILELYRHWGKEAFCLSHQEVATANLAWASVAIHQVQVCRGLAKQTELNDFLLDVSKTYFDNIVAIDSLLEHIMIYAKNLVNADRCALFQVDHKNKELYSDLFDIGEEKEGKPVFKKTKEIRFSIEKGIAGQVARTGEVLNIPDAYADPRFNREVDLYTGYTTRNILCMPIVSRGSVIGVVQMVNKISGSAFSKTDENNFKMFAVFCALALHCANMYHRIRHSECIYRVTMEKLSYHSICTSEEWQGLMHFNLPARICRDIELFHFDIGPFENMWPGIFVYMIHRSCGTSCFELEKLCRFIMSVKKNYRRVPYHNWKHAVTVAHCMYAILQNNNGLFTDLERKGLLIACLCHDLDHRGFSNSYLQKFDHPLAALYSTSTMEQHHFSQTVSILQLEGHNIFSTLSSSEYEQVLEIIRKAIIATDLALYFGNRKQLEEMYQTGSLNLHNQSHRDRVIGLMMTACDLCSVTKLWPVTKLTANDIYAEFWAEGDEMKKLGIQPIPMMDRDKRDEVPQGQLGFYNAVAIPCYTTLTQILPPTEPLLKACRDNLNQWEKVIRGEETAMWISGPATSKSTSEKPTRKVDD
Rule: measured IC50 below 1000 nM gets rule met; anything equal to or greater than 1000 nM gets rule not met.

smilesData: O[C@H]1CCN(c2nccnc2OC2CCN(c3ccc4ccccc4n3)CC2)C1
label: rule met
//
smilesData: CC(=O)N1CCC(c2cccnc2OC2CCN(c3ccccn3)CC2)CC1
label: rule not met
//
smilesData: O=C(c1ccc2ccccc2n1)N1CCC(Oc2nccnc2N2CCOCC2)CC1
label: rule not met
//
smilesData: c1ccc2[nH]c(N3CC[C@H](Oc4nccnc4C4CCOCC4)C3)nc2c1
label: rule not met
//
smilesData: CC(C)(O)C1CCN(c2nccnc2OC2CCN(c3ccc4ccccc4n3)CC2)CC1
label: rule met
//
smilesData: CC(=O)N1CCC(c2cccnc2OC2CN(C(=O)OC(C)(C)C)C2)CC1
label: rule not met
//
smilesData: O=C(c1nccc2ccccc12)N1CCC(Oc2nccnc2N2CCOCC2)CC1
label: rule not met
//
smilesData: FC1(F)CCN(c2cccnc2OC2CN(c3ccc4ccccc4n3)C2)CC1
label: rule met
//
smilesData: CC(=O)N1CCC(c2cccnc2OC2CN(c3ccc4ccccc4n3)C2)CC1
label: rule met
//
smilesData: Cc1ccc2ccc(N3CCC(Oc4ncccc4C4CCOCC4)CC3)nc2c1
label: rule met

###

pIC50 overview
Biological target: cAMP and cAMP-inhibited cGMP 3',5'-cyclic phosphodiesterase 10A (Rattus norvegicus)
Sequence (Q9QYJ6 whole entry): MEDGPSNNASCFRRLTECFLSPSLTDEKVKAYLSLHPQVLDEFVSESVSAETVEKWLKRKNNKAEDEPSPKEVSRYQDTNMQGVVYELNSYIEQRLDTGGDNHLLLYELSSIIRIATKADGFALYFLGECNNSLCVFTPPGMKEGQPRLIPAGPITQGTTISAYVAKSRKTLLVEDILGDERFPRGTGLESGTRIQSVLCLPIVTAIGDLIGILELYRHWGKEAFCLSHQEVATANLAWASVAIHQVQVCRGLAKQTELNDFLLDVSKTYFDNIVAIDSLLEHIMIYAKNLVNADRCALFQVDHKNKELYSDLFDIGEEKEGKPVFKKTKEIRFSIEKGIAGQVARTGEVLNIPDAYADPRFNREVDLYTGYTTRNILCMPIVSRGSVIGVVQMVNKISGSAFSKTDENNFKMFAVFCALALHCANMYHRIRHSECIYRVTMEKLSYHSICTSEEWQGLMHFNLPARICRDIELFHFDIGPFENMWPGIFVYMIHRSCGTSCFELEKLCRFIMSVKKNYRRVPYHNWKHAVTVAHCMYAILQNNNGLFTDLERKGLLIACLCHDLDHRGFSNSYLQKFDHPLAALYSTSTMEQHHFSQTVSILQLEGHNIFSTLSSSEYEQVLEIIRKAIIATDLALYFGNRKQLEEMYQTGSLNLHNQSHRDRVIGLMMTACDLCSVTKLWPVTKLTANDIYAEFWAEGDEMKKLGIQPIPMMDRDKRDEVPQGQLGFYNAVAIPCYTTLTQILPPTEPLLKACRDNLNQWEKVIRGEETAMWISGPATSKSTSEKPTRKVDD
pIC50: −log10 of the molar value.

compound: O=C(c1ccc2ccccc2n1)N1CCC(Oc2nccnc2C2CCOCC2)CC1
targetOfAssay: cAMP and cAMP-inhibited cGMP 3',5'-cyclic phosphodiesterase 10A (Rattus norvegicus)
pIC50: 6.00
//
compound: O=C(c1nc2ccccc2[nH]1)N1CCC(Oc2ncccc2C2CCOCC2)CC1
targetOfAssay: cAMP and cAMP-inhibited cGMP 3',5'-cyclic phosphodiesterase 10A (Rattus norvegicus)
pIC50: 6.94
//
compound: O=C(c1nc2ccccc2[nH]1)N1CC(Oc2nccnc2N2CCOCC2)C1
targetOfAssay: cAMP and cAMP-inhibited cGMP 3',5'-cyclic phosphodiesterase 10A (Rattus norvegicus)
pIC50: 6.42
//
compound: O=C(c1nc2ccccc2[nH]1)N1CC[C@H](Oc2ncccc2C2=CCOCC2)C1
targetOfAssay: cAMP and cAMP-inhibited cGMP 3',5'-cyclic phosphodiesterase 10A (Rattus norvegicus)
pIC50: 6.15
//
compound: CC(O)C1CCN(c2ccnnc2OC2CN(c3ccc4ccccc4n3)C2)CC1 (configuration not stated)
targetOfAssay: cAMP and cAMP-inhibited cGMP 3',5'-cyclic phosphodiesterase 10A (Rattus norvegicus)
pIC50: 7.12
//
compound: CC(=O)N1CCC(c2nccnc2OC2CN(c3ccc4ccccc4n3)C2)CC1
targetOfAssay: cAMP and cAMP-inhibited cGMP 3',5'-cyclic phosphodiesterase 10A (Rattus norvegicus)
pIC50: 8.08
//
compound: O=C1CCN(c2nccnc2OC2CCN(c3ccc4ccccc4n3)CC2)CC1
targetOfAssay: cAMP and cAMP-inhibited cGMP 3',5'-cyclic phosphodiesterase 10A (Rattus norvegicus)
pIC50: 6.71
//
compound: N#Cc1ccccc1-c1nccnc1OC1CN(c2ccc3ccccc3n2)C1
targetOfAssay: cAMP and cAMP-inhibited cGMP 3',5'-cyclic phosphodiesterase 10A (Rattus norvegicus)
pIC50: 6.42
//
compound: O=C(c1cc(Cl)ccn1)N1CCC(Oc2ncccc2C2CCOCC2)CC1
targetOfAssay: cAMP and cAMP-inhibited cGMP 3',5'-cyclic phosphodiesterase 10A (Rattus norvegicus)
pIC50: 5.05
//
compound: O=C(c1nc2ccccc2[nH]1)N1CC[C@@H](Oc2nccnc2C2CCOCC2)C1
targetOfAssay: cAMP and cAMP-inhibited cGMP 3',5'-cyclic phosphodiesterase 10A (Rattus norvegicus)
pIC50: 5.56
//
compound: Cc1ccc2nc(N3CCC(Oc4nccnc4C4CCOCC4)CC3)ccc2c1
targetOfAssay: cAMP and cAMP-inhibited cGMP 3',5'-cyclic phosphodiesterase 10A (Rattus norvegicus)
pIC50: 6.56
//
compound: CC(=O)N1CCCC(c2cccnc2OC2CN(C(=O)c3cc(C)c[nH]3)C2)C1 (configuration not stated)
targetOfAssay: cAMP and cAMP-inhibited cGMP 3',5'-cyclic phosphodiesterase 10A (Rattus norvegicus)
pIC50: 5.10
//
compound: O=Cc1ccc(N2CCC(Oc3ncccc3C3CCOCC3)CC2)nc1
targetOfAssay: cAMP and cAMP-inhibited cGMP 3',5'-cyclic phosphodiesterase 10A (Rattus norvegicus)
pIC50: 5.83
//
compound: c1ccc2nc(N3CCC(Oc4nccnc4N4CCC4)CC3)ccc2c1
targetOfAssay: cAMP and cAMP-inhibited cGMP 3',5'-cyclic phosphodiesterase 10A (Rattus norvegicus)
pIC50: 6.56
//
compound: CC(=O)N1CCC(c2nccnc2OC2CN(C(=O)c3ccc[nH]3)C2)CC1
targetOfAssay: cAMP and cAMP-inhibited cGMP 3',5'-cyclic phosphodiesterase 10A (Rattus norvegicus)
pIC50: 6.86
//
compound: OCC1CCN(c2ncc(Br)c(OC3CN(c4ncc5ccccc5n4)C3)n2)CC1
targetOfAssay: cAMP and cAMP-inhibited cGMP 3',5'-cyclic phosphodiesterase 10A (Rattus norvegicus)
pIC50: 7.84
//
compound: COC(=O)c1ccc(N2CCC(Oc3ncccc3C3CCOCC3)CC2)nc1
targetOfAssay: cAMP and cAMP-inhibited cGMP 3',5'-cyclic phosphodiesterase 10A (Rattus norvegicus)
pIC50: 6.70
//
compound: Brc1cccnc1OC1CN(c2ccncn2)C1
targetOfAssay: cAMP and cAMP-inhibited cGMP 3',5'-cyclic phosphodiesterase 10A (Rattus norvegicus)
pIC50: 4.24
//
compound: OCC1CCN(c2ccc(Br)c(OC3CN(c4ccc5ccccc5n4)C3)n2)CC1
targetOfAssay: cAMP and cAMP-inhibited cGMP 3',5'-cyclic phosphodiesterase 10A (Rattus norvegicus)
pIC50: 9.64
//
compound: Cc1ccc2ccc(N3CCC(Oc4nccnc4C4CCOCC4)CC3)nc2c1
targetOfAssay: cAMP and cAMP-inhibited cGMP 3',5'-cyclic phosphodiesterase 10A (Rattus norvegicus)
pIC50: 6.29
//
compound: N#Cc1ccc(N2CCC(Oc3ncccc3C3CCOCC3)CC2)nc1
targetOfAssay: cAMP and cAMP-inhibited cGMP 3',5'-cyclic phosphodiesterase 10A (Rattus norvegicus)
pIC50: 6.08
//
compound: c1ccc2nc(N3CCC(Oc4nccnc4C4CCOCC4)CC3)ccc2c1
targetOfAssay: cAMP and cAMP-inhibited cGMP 3',5'-cyclic phosphodiesterase 10A (Rattus norvegicus)
pIC50: 7.16
